Hi there, I'd appreciate the recorded protease stability score for every entry that follows.
Assay: protease stability score; higher = more stable; yeast display proteolysis, trypsin and chymotrypsin;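 further: relative to predicted unfolded state with 0 unfolded-like and 1 meaning tenfold more protease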
Answers are plain numbers.

Here are 3 sequences together with their reported answers.
1. DEDEHVLEHIVRLLIRIHLTGNFDRLRELVDPHAQIIIGDKEYHGWHMLEKWLERMGIDHIHIRHNEIRYYGEFAVLHLDTEVSIDGQSLHQIVHLDVDKVDGKWRVKNIRTDHR 1.34
2. DEETEKDKFLSEVFRHSLMTGDWESELKYADPHARTVVNGRTIHGMRESWEHLKELLERLGAKYIKIRDMDSHIQGDKVLININGELHVGDKTIETRIHLIVRKVNGQWHIEELRFDFK 0.993
3. DKLHHDARWMMERLYETLETGDFHSFLRLADPEVLLIINGQFLHGREEVERFYDEEREKFKGLTIKHLHIHRVEMQGDKVRVDSRIHHIINGVNVHNNVKLEFVAFDGRMHRLRIEEE 1.24

Could you tell me protease stability score for each of these sequences? They are listed below.
1. DEEDKNTHEFARRIIESWVTGDWKDLHELIDPHARLILDVGNKKEIYHGREEVKRRLLREIEKFKNVRFEIRDLHVVGDKVDAEVTLHIDGKDIEIHIHLLIVNGKVKEIRLHYH
2. DERHEHVREMSHRMEEWFETGDEDKWVKNADPNVITDINGQKLHGRENAARFLLHYHNRFKGMRFDIEDVDIQGEKVHIHSVQHFDGVKFDVRLIFEVFDGVIKSMHVEVK

1. 2.27
2. 0.706
